# Test system: MCF-7 cells
# assayName: Estrogenicity assay, mitogenic endpoint (ESCREEN)
# settings: Homo sapiens, MCF7, 120 h
Classify: met when EC25 is strictly less than 7 µM; not met when EC25 is not.

q: Does the reported EC25 of `O=c1oc2cc(O)ccc2c2oc3cc(O)ccc3c12` stay below 7 µM?
a: met

q: Given `O=C1C[C@@H](c2ccc(O)cc2)Oc2cc(O)cc(O)c21` , is recorded EC25 strictly lower than 7 µM?
a: met

q: Please state whether EC25 is below 7 µM for `O=C1OC[C@H](Cc2cccc(O)c2)[C@H]1Cc1cccc(O)c1`
a: not met

q: Does this compound meet the criterion EC25 < 7 µM? CC1COCc2cc3c(cc21)C(C)(C)C(C)C3(C)C (stereo not shown) [Galaxolide, Galaxolide (HHCB)]
a: not met

q: Consider the compound `CCCOC(=O)c1ccc(O)cc1` . Is its EC25 strictly less than 7 µM?
a: met

q: Lab note: confirm whether the reported EC25 for this compound is below 7 µM, equality not counting. compound: Cc1ccc(/C=C2/C(=O)C3(C)CCC2C3(C)C)cc1 (stereo not shown)
a: met

q: is_below(EC25, 7 µM) for `OC[C@H](Cc1cccc(O)c1)[C@H](CO)Cc1cccc(O)c1` ?
a: not met

q: In the record for `O=c1c(-c2ccc(O)cc2)coc2cc(O)cc(O)c12` , is EC25 less than 7 µM?
a: met

q: Dear colleague, could you confirm whether EC25 of `COC(=O)c1ccc(O)cc1` falls below 7 µM? Thanks.
a: not met

q: For this compound, is EC25 lower than 7 µM? `c1ccc2c(c1)-c1cccc3cccc-2c13`
a: not met

Reference source for all entries: paper PMC3422259
